B1: FAM189A2 (parent)
chain: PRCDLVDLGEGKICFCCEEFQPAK

Variants of: B1
ASSAY_DETAILS: protein stability index of a GFP-peptide fusion (GPS, HEK-293T) (PSI 1-6); higher = more stable;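 note: lentivirally expressed fusions sorted by FACS into six bins by GFP to DsRed ratio, PSI derived from sequencing read proportions per bin multiplied by bin number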
TEST_SETTINGS: c terminus: a fixed tail appended
MEASURED_PROPERTY: protein stability index

INSERT INTO assay_data (residue_sequence, experimental_result) VALUES
  ('PRCDLVDLGVGKICFCCEEFQPAK [E10V]', 2.26),
  ('PRCDMVDLGEGKICFCCEEFQPAK [L5M]', 2.86),
  ('PRCDLVDLGEGKICFCCEEFQPHK [A23H]', 3.07),
  ('PRCDLVDLGEGKDCFCCEEFQPAK [I13D]', 4.28),
  ('PRCDLVDSGEGKICFCCEEFQPAK [L8S]', 3.97),
  ('PRCDLVDLGEGKYCFCCEEFQPAK [I13Y]', 2.3),
  ('PRCDLVDLGEGKICFCCEEFQPMK [A23M]', 1.96),
  ('PRCDLVDLGETKICFCCEEFQPAK [G11T]', 2.64),
  ('PRCDLVDLGEGKICLCCEEFQPAK [F15L]', 3.39),
  ('PRADLVDLGEGKICFCCEEFQPAK [C3A]', 2.01),
  ('PACDLVDLGEGKICFCCEEFQPAK [R2A]', 2.83),
  ('PRCDLVDLGEYKICFCCEEFQPAK [G11Y]', 2.52),
  ('PRTDLVDLGEGKICFCCEEFQPAK [C3T]', 2.44),
  ('PRCDLVDLGAGKICFCCEEFQPAK [E10A]', 2.56),
  ('PRCDLVDIGEGKICFCCEEFQPAK [L8I]', 3.13),
  ('PRCDLVDLGEGKICFCCAEFQPAK [E18A]', 3.34),
  ('PRCDLVDLGLGKICFCCEEFQPAK [E10L]', 2.08),
  ('PRCDLPDLGEGKICFCCEEFQPAK [V6P]', 3.03),
  ('PRCDLVDLGEGKICFCCEEFQPAT [K24T]', 3),
  ('PRCDLVDLGEGDICFCCEEFQPAK [K12D]', 3.4),
  ('PRCDLVDLGEGKICFCHEEFQPAK [C17H]', 3.11),
  ('PRCDLVDLGEGKICFCCEEEQPAK [F20E]', 4.91),
  ('PRCDLVDLGEGKICFVCEEFQPAK [C16V]', 2.85),
  ('PRCDLVCLGEGKICFCCEEFQPAK [D7C]', 2.92),
  ('PRCDLVDLGEGKIVFCCEEFQPAK [C14V]', 3.06),
  ('PRCDLVDLGEGKICFCCEEFPPAK [Q21P]', 2.86),
  ('PRCDLVDLGEGKICFACEEFQPAK [C16A]', 3.45),
  ('PRCDLVDLGEGKICFCCYEFQPAK [E18Y]', 2.07),
  ('PRCDLVDLGEPKICFCCEEFQPAK [G11P]', 2.52),
  ('PRCDLVDLGEGKICFCCEEFFPAK [Q21F]', 2.24),
  ('PRCDLVDLGEGKICFCCEEFQPAV [K24V]', 3.06),
  ('PRCDLVDLGEGKICFCCEDFQPAK [E19D]', 2.97),
  ('PRCDLVDLGEGKICFCTEEFQPAK [C17T]', 4.05),
  ('PRCDLVDLGEGKICFCCEEFQMAK [P22M]', 3.07),
  ('PRCDLVDLGEGKICFCCEEFQPRK [A23R]', 2.24),
  ('PWCDLVDLGEGKICFCCEEFQPAK [R2W]', 1.98),
  ('PRCDLLDLGEGKICFCCEEFQPAK [V6L]', 2.6),
  ('PRCDLVDEGEGKICFCCEEFQPAK [L8E]', 3.65),
  ('PRCKLVDLGEGKICFCCEEFQPAK [D4K]', 3.44),
  ('PRCDLVDLGEGKICFCCEEFTPAK [Q21T]', 3.55),
  ('PRCDLVDYGEGKICFCCEEFQPAK [L8Y]', 2.21),
  ('PRCDLVDLGEGKICPCCEEFQPAK [F15P]', 3.55),
  ('PRCDLVDLGEGFICFCCEEFQPAK [K12F]', 2.85),
  ('PRCDLVDLGEGKICFCCEEFQPAF [K24F]', 2.23),
  ('PRCDLVDLGEGKICFCCEVFQPAK [E19V]', 1.65),
  ('PRCDLVDLGEGKICFCCEEFQPCK [A23C]', 3.98);
